Target: thrombin (Homo sapiens)
Assay: Effect of test compounds on thrombin activity: hydrolysis rate of chromogenic (Chromozim TH) or fluorogenic (BOC-Ala-Pro-Arg-AMC) substrate
Type: biochemical
Settings: concentration of compound 12.5 nM
metric: inhibition at 0.0125 µM (%)
Give bare numbers, in %.

// each listed molecule needs a value for inhibition at 0.0125 µM
1. Cc1cc(OCC[n+]2ccc(N)cc2)cc(OS(=O)(=O)c2ccccc2)c1 [HC-019s-IOC]
2. Cc1cc(OCC[n+]2ccc(N)cc2)cc(OS(=O)(=O)c2ccccc2Cl)c1 [HC-025s-IOC]
3. Cc1cc(OCCCSC(=N)N)cc(OS(=O)(=O)c2ccccc2Cl)c1 [HC-026s-IOC]
4. Cc1cc(OCCSC(=N)N)cc(OS(=O)(=O)c2ccccc2Cl)c1
5. Cc1cc(OCCSC(=N)N)cc(OS(=O)(=O)c2ccccc2)c1.I [HC-020s-IOC]

[out]
1. 90
2. 81
3. 40
4. 77
5. 46
